# testDescription: in vitro
# setupConditions: mouse, liver microsomes
measuredParameter: half-life at 40 min (min)
Respond with the bare value in min.

Entry under review: Cc1[nH]nc(-c2ccncc2)c1-c1ccc(-c2cccc(S(N)(=O)=O)c2)c(C2CC2)c1 . Reported half-life at 40 min?
30

* * *

# testDescription: in vitro
# setupConditions: human, Caco-2
measuredParameter: Papp B→A at 2 h, 10 µM (×10⁻⁶ cm/s)
Respond with the bare value in ×10⁻⁶ cm/s.

Entry under review: Cc1[nH]nc(-c2ccncc2)c1-c1ccc(-c2cccc(S(N)(=O)=O)c2)c(C2CC2)c1 . Reported Papp B→A at 2 h, 10 µM?
27
